experiment: solvent given as SMILES; details: in CC#N
For each of the molecules below, state its emission maximum.
Numbers only, in nm.

Hi there! I need emission maximum for each item below, if you can.
1. N#Cc1cccc2[nH]ccc12
2. c1ccc(-c2nn(-c3ccccc3)c3nc4ccc(N(c5ccccc5)c5cccc6ccccc56)cc4cc23)cc1
3. C(=C\c1ccnc2ccccc12)/c1c2ccccc2cc2ccccc12
4. F[B-]1(F)n2cccc2C(c2c3ccccc3c(-c3ccccc3)c3ccccc23)=C2C=CC=[N+]21
5. CN(C)c1c2ccccc2cc2ccccc12
6. CC1=[O+][B-]2(OC(=O)C(=O)O2)OC(c2c3ccccc3cc3ccccc23)=C1
7. c1ccc(-n2c(-c3ccc(-c4ccc(-c5ccc(-c6nc7c8ccccc8c8ccccc8c7n6-c6ccccc6)cc5)cc4)cc3)nc3ccccc32)cc1

OUT:
[380, 555.25, 530, 524, 390, 527, 447]

====

test: solvent given as SMILES; conditions: in CCCCCC
Each record gets a class by emission maximum: low bin: < 400 nm; mid bin: ≥ 400 nm and < 600 nm; high bin: ≥ 600 nm

Worked cases, answers included:
CN(C)c1ccc(/C=C/C=C2\CC/C(=C\C=C\c3ccc(N(C)C)cc3)C2=O)cc1    mid bin
CC(C)c1ccc2ccc3c(C(C)C)ccc4ccc1c2c43    low bin
CCC1=C(C)C2=Cc3c4ccccc4c4n3[B-](c3ccncc3)(Oc3ccccc3-4)[N+]2=C1C=Cc1ccc(OC)cc1 (centres undefined)    high bin
C/C(=N\Nc1ccc(C#N)cc1)c1cccc(/C(C)=N/Nc2ccc(C#N)cc2)c1    mid bin
Cc1cc(C(F)(F)F)nc2c1ccc1nc(-c3ccc(F)c(F)c3)cn12    mid bin

IN: State the band of CCCCCCCCC1(CCCCCCCC)c2cc(-c3ccc(C=C4C(=O)c5ccccc5C4=O)cc3)ccc2-c2ccc(-c3ccc(C=C4C(=O)c5ccccc5C4=O)cc3)cc21
OUT: mid bin

====

For each of the compounds below, state its emission maximum.
test: solvent given as SMILES; conditions: in C1CCCCC1
One number for each entry, in nm.

CN(C)c1ccc2c(c1)C(=O)c1ccccc1-2    600

Hi there! I need emission maximum for each item below, if you can.
1. CN(C)c1ccc(/C=C(\C#N)c2nc3ccccc3s2)cc1
2. Cc1ccccc1[B-]1(c2ccccc2C)n2nc(C(F)(F)F)cc2-c2c3ccccc3cc[n+]21
3. COc1ccc(C2=C3C(C)=CC(C)=[N+]3[B-](F)(F)n3c(/C=C/c4ccc(N(C)C)cc4)cc(C)c32)cc1
4. O=C(O)c1ccccc1Nc1cccc(C(F)(F)F)c1

OUT:
[500, 414, 612, 406]

====

test: solvent given as SMILES; conditions: in O
Output YES for records whose emission maximum is lower than 500 nm, NO for records at or above 500 nm.

Nc1nc2ccccc2[n+]([O-])n1    NO
Nc1ccc2c(-c3ccc(C(=O)CN4C(=O)CCC4=O)cc3C(=O)[O-])c3ccc(=[NH2+])c(S(=O)(=O)[O-])c-3oc2c1S(=O)(=O)[O-]    NO
O=Cc1ccc(-c2ccc(-c3nc4ccccc4s3)c(O)c2)o1    NO
CCOC(=O)c1ccc(NC(=O)COc2cc3c4c([nH]c3c(C)c2C)C(=O)CCC4)cc1    YES

IN: I wonder whether CC1(C)C2=[N+](CCCCCC(=O)NCCCNC(=O)CCCCCN3/C(=C/C=C/C=C/C=C/2)C(C)(C)c2cc(S(=O)(=O)[O-])ccc23)c2ccc(S(=O)(=O)[O-])cc21 has emission maximum below 500 nm. Can you tell?
OUT: NO

IN: I wonder whether CC[n+]1c(-c2ccccc2)c2cc(NC(N)=O)ccc2c2ccc(NC(N)=O)cc21 has emission maximum below 500 nm. Can you tell?
OUT: NO

IN: I wonder whether C=CCNc1ccc2ccc3oc4cc(=[N+]5CCCC5)ccc-4nc3c2c1 has emission maximum below 500 nm. Can you tell?
OUT: NO

IN: I wonder whether CC[N+]1(CC)CN2C(=N1)C(C(=O)O)=Cc1cc(OC)c(OC)cc12 has emission maximum below 500 nm. Can you tell?
OUT: YES

IN: I wonder whether O=C(O)c1cc(O)c(O)c(O)c1 has emission maximum below 500 nm. Can you tell?
OUT: YES

====

assay: solvent given as SMILES; details: in C1CCCCC1
readout: emission maximum (nm)
One number for each entry, in nm.

The examples below pair each entry with its known result.
CN(C)c1ccc(C#Cc2ccc(C#N)cc2)cc1    383
c1cc2cccc3c4cccc5cccc(c(c1)c23)c54    438.4
CC1=N/C(=C\c2ccccc2N(C)C)C(=O)N1C    472
CC(C)(C)c1ccc(C2=c3c(c4ccc(C(C)(C)C)cc4c4cc(C(C)(C)C)ccc34)=[N+]3C2=C(c2ccccc2)c2c(-c4ccc(C(C)(C)C)cc4)c4c5ccc(C(C)(C)C)cc5c5cc(C(C)(C)C)ccc5c4n2[B-]3(F)F)cc1    711
COc1c2ccccc2c(OC)c2c1c1ccc(F)cc1n2C    404

Hi there! I need emission maximum for each item below, if you can.
1. [BH3-][P+]1(c2ccccc2)c2ccccc2-c2sc3ccccc3c21 (centres undefined)
2. O=S1c2ccccc2-c2cc(-c3c4ccccc4cc4ccccc34)ccc21 (centres undefined)
3. COc1ccc(C2=C(c3ccc(OC)cc3)C(C)(C)c3ccccc32)cc1
4. c1ccc(-c2nc(-c3cccc4ccccc34)n3ccccc23)cc1
5. CCCCCCCCCCCCC(CCCCCCCCCC)Cn1c2cc(/C=C/c3nc4ccccc4s3)c3cccc4c5cccc6c(/C=C/c7nc8ccccc8s7)cc1c(c65)c2c34 (centres undefined)
6. C(=C\c1ncnc2ccccc12)/c1ccc(-c2ccc(N(c3ccccc3)c3ccccc3)cc2)cc1
7. COc1ccc(-c2ccc(OC)cc2)cc1
8. CC(C)(C)c1ccc(-c2cc3c4c(c2)CCc2cc(-c5ccc(C(C)(C)C)cc5)cc(c2-4)CC3)cc1

OUT:
1: 395; 2: 401.88; 3: 391; 4: 478; 5: 570; 6: 461; 7: 363.77; 8: 382.09

Hi there! I need emission maximum for each item below, if you can.
1. CC1=[N+]2C(=C(c3cccs3)c3ccc(C)n3[B-]2(F)F)C=C1c1cc2n(c1)[B-](F)(F)[N+]1=CC=CC1=C2c1c(C)cc(C)cc1C
2. CC1=[N+]2C(=C(/C=C/c3ccc(C(F)(F)F)cc3)c3ccc(C)n3[B-]2(F)F)C=C1c1cc2n(c1)[B-](F)(F)[N+]1=CC=CC1=C2c1c(C)cc(C)cc1C
3. Clc1ccc(/C=C/c2nc3ccccc3o2)cc1
4. Oc1ccc(/N=C/c2ccccc2Oc2ccccc2)cc1

OUT:
1: 650; 2: 704; 3: 380; 4: 410

Hi there! I need emission maximum for each item below, if you can.
1. COc1ccc2c(c1)C(=O)c1cc(OC)cc(OC)c1-2
2. Nc1cccc2cc3ccccc3cc12

OUT:
1. 570
2. 487.09

====

assay: solvent given as SMILES; conditions: in CCCCCC
readout: emission maximum (nm)
Give bare numbers, in nm.

The examples below pair each entry with its known result.
CC(C)(C)c1ccc(-c2nc3c4ccc(-c5c6ccccc6cc6ccccc56)cc4c4cc(-c5c6ccccc6cc6ccccc56)ccc4c3n2-c2ccc(C(C)(C)C)cc2)cc1    419
CCN(CC)c1ccc2cc(-c3ccc(C(F)(F)F)cc3)oc(=O)c2c1    418
C[Si](C)(C)c1ccc2ccc3c([Si](C)(C)C)ccc4ccc1c2c43    380

Hi there! I need emission maximum for each item below, if you can.
1. CC(C)(C)c1ccc(-c2c3ccccc3c3n2[B-](F)(F)[N+]2=Cc4c5ccccc5c(-c5ccc(C(C)(C)C)cc5)n4[B-](F)(F)[N+]2=C3)cc1
2. CC1CC=C(c2ccc(-c3ccc(C=O)s3)s2)CC1 (centres undefined)
3. CCc1c(C)[nH]c(C2=[N+]3C(=Cc4c(C)cc(C)n4[B-]3(F)F)c3ccccc32)c1C
4. CC1=C2C=CC=[N+]2[B-](F)(F)n2cccc21
5. c1ccc(-c2ccc(-c3ccc(-n4c5ccccc5c5ccccc54)cc3)c3nsnc23)cc1
6. F[B-]1(F)n2cccc2C(c2ccc(-c3c4ccccc4c(-c4ccccc4)c4ccccc34)cc2)=C2C=CC=[N+]21

OUT:
[603, 445, 630, 506, 481, 517]

====

assay: solvent given as SMILES; details: in C1COCCO1
readout: emission maximum
A bare number is not enough; add the unit after it.

The examples below pair each entry with its known result.
C#CCN1C(=O)/C(=C/c2cc(OC(C)C)ccc2OC(C)C)N=C1C    476 nm
O=C(/C=C/c1cn(-c2ccccc2)nc1-c1ccccc1)c1c(O)c2ccccc2oc1=O    482 nm
Cc1ccc2nc(/C=C/c3ccc(N(C)C)cc3)c(-c3ccccc3)nc2c1    528 nm
Cc1cc(O)c(C(C)C)cc1/N=C/c1ccc(O)cc1    405 nm
CCOC(=O)c1ccc(NC(=O)COc2cc3c4c([nH]c3c(C)c2C)C(=O)CCC4)cc1    408.59 nm
CN(C)c1ccc(C2=Cc3c4ccccc4c4ccccc4[n+]3[B-](F)(F)O2)cc1    518 nm
COC(=O)c1ccc(-c2ccc(-c3nnc(-c4ccc(-c5nnc(-c6ccc(-c7ccc(C(=O)OC)cc7)s6)o5)cc4)o3)s2)cc1    400 nm
CN(C)c1ncc2nc(C#N)n(Cc3ccccc3)c2n1    424 nm
COc1ccc(C2=N/C(=C\c3ccc(C#N)cc3)C(=O)O2)cc1OC    489 nm

# evaluate next
The reported value for CCc1ccc(/C=N/c2cc(C(C)C)c(O)cc2C)cc1 in terms of emission maximum is 410 nm
